These measurements were taken from the NIST ThermoML archive (doi:10.1016/j.jct.2017.08.004).

Test: molar heat capacity at constant pressure
Conditions: 417.15 K; 101.33 kPa; Liquid; Small sample (50 mg) DSC
Recorded Endpoint: molar heat capacity at constant pressure (J/K/mol)
Write the value in J/K/mol as a bare number.

For the compound shown here, OC[C@@H](O)[C@H](O)[C@@H](O)CO [xylitol] , give the reported molar heat capacity at constant pressure. 444.35

Moving on to OC[C@@H](O)C(O)[C@H](O)CO [D-arabitol] 453.87

Moving on to OC[C@H](O)C(O)[C@@H](O)CO [L-(-)-arabitol] 452.58

Moving on to OC[C@@H](O)[C@@H](O)CO [meso-1,2,3,4-butanetetrol] 354.7
